B1: tRNA (parent)
chain: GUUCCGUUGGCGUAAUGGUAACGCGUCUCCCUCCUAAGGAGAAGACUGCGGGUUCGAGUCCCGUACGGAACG

Variants of: B1
assay info: yeast fitness relative to wild type (ratio to wild type); higher = fitter; tRNA-Arg(CCU), competitive growth, 37 C, YPD
Fewer inactive variants are shown than the library holds.
observation type: yeast fitness
One number for each entry.

These solved cases illustrate the format of a correct answer.
{"residue codes": "GUUCCGUUGGCGUAAUGGUAUCGCGUCUCACUCCUAAGGAGAAGACUGCGGGUUCGAGUCCCGUACGGAACG [A21U C30A]", "reading": 0.757}
{"residue codes": "GUUGCGUUGGCGUAAUAGUAACGCGUCUCCCUCAUAAGGAGAGGACUGCGGGUUCGAGUCCCGUACGGAACG [C4G G17A C34A A43G]", "reading": 0.633}
{"residue codes": "GUUCCGUUGGCGUAAUGGUCACGCGUCUCCCUCCUAAGGAGAAGACUGCGGGUUCGAGUCUCGUACGGUACG [A20C C61U A69U]", "reading": 0.61}

Hello, I would appreciate it if you could give yeast fitness for each entry below.
1. GUUCCGUUGGCGUAAUGGUAACGCGUCUCCCUCCUAAGGAGAAGACUACGGGUUCGAGUCCCGUUCGGAACG [G48A A65U]
2. GUUCCGUUGGCGUAAUGGUAUCGCGUCUCCCUCCUAAGGAGAAGACUGCGGGUUCGAGUCCCGUACGUAACG [A21U G68U]
3. GUUCCGUUGGCGUAAUGGUAACGCGUCUCCCUCCUAAGGAGAUGACUGCGGGUUCGAGCCCCGUACGGAACG [A43U U59C]
4. GUUCCGUUGGCGUAAUCGUAACGCGUCUCCCUCCUAAGGAAAAGACUGCGGGUUCGAGUCCCGUACGGAACG [G17C G41A]
5. GUUCCGUUGGGAUAAUGGUAACGCGUCUCCCUCCUAAGGACAAGACUGCGGGUUCGAGUCCCGUAACGAACG [C11G G12A G41C C66A G67C]
6. GUUCUGUUGGCGUAAUGGUAACGCGUCUCCCCCCUAAGGAGAAGACUGUGGGUUCGAGUCCCGUACGGAACG [C5U U32C C49U]
7. GCUCCGUUGGCGUAAUGGUAACGCGUCUCCCUCCUAAGGAGAAGACUGCGGGUUCGAGUCCCGUAAGGAACG [U2C C66A]
8. GUUCCCUUGGCGUAAUGGUAACGCGUCUCCCUCCUAAGGAGAAGACUGCGGGUUCGAGUCCAGUACGGAACG [G6C C62A]

1.02
0.752
1.02
0.615
0.596
0.842
0.611
0.798
